Target: Human DOR (Homo sapiens, UniProt P41143)
Construct: expressed in transfected cells; host or cells: HEK-293T
Sequence (P41143 whole entry): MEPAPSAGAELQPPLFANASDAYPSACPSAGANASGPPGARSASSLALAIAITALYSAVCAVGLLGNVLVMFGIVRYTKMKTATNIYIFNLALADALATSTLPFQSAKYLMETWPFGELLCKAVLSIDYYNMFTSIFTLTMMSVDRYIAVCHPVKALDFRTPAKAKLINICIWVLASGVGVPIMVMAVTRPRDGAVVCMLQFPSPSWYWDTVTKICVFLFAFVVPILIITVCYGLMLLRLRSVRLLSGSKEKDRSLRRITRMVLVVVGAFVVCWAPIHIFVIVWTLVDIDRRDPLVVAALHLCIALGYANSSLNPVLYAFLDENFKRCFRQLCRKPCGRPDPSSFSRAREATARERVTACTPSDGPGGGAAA
Test: cell-based
Details: EC50 at indicated opioid receptor, Human DOR
pEC50: −log10 of the molar value.

| COMPOUND | pEC50 |
| --- | --- |
| CCCC1CC2CC3c4oc5ccc(O)cc5c4CCN(C2)C13 (stereo not drawn) [Compound 35c] | > 5.00 |
| CCC1CC2CC3c4sc5ccc(O)cc5c4CCN(C2)C13 (stereo not drawn) [Compound 35n] | < 4.00 |
| CCC1CC2CC3c4oc5cc(OC)ccc5c4CCN(C2)C13 (stereo not drawn) [Compound 34k] | < 5.00 |

----------
Biological target: Human DOR (Homo sapiens)
Construct: expressed in transfected cells; host or cells: HEK-293T
Assay: cell-based
EXPERIMENTAL_ENDPOINT: agonist activity at DOR (in words)

| COMPOUND | EXPERIMENTAL_ENDPOINT | ASSAY_RESULT |
| --- | --- | --- |
| CCC1(CC)CC2CC3c4oc5ccc(O)cc5c4C[C@@H](C)N(C2)C31 (stereo partly drawn) [α-endo-52f] | agonist activity at DOR (in words) | not active as agonist |
| CCC1CC2CC3c4oc5ccc(O)cc5c4C[C@@H](CC)N(C2)C13 (stereo partly drawn) [α-endo-52g] | agonist activity at DOR (in words) | not active as agonist |

----------
Biological target: Human KOR (Homo sapiens)
Construct: expressed in transfected cells; host or cells: HEK-293T
Assay: cell-based
Settings: EC50 at indicated opioid receptor, Human KOR
pEC50: −log10 of the molar value.

| COMPOUND | MEASURED_ON | pEC50 |
| --- | --- | --- |
| COc1ccc2oc3c(c2c1)CCN1CC2CC(c4ccccc4)C1C3C2 (stereo not drawn) [Compound 34n] | Human KOR (Homo sapiens) | < 5.00 |
| CCC1CC2CC3c4oc5cc(F)c(O)cc5c4CCN(C2)C13 (stereo not drawn) [Compound 35k] | Human KOR (Homo sapiens) | > 5.00 |
| CCC1CC2CC3c4oc5cc(O)ccc5c4CCN(C2)C13 (stereo not drawn) [Compound 35f] | Human KOR (Homo sapiens) | > 5.00 |
| OCC1CC2CC3c4oc5ccc(O)cc5c4CCN(C2)C13 (stereo not drawn) [Compound 35j] | Human KOR (Homo sapiens) | > 5.00 |
| Oc1ccc2oc3c(c2c1)CCN1CC2CC(c4ccccc4)C1C3C2 (stereo not drawn) [Compound 35m] | Human KOR (Homo sapiens) | < 4.00 |
| Oc1ccc2oc3c(c2c1)CCN1CC2CC(c4ccccc4)C1C3C2 (stereo not drawn) [Compound 35l] | Human KOR (Homo sapiens) | < 5.00 |
| COCC1CC2CC3c4oc5ccc(OC)cc5c4CCN(C2)C13 (stereo not drawn) [Compound 34m] | Human KOR (Homo sapiens) | < 5.00 |
| CCC1CC2CC3c4oc5c(O)cccc5c4CCN(C2)C13 (stereo not drawn) [Compound 52a] | Human KOR (Homo sapiens) | < 5.00 |
| CCC1CC2CC3c4oc5ccccc5c4CCN(C2)C13 (stereo not drawn) [Compound 34a] | Human KOR (Homo sapiens) | < 5.00 |
| CCCC1CC2CC3c4oc5ccc(OC)cc5c4CCN(C2)C13 (stereo not drawn) [Compound 34e] | Human KOR (Homo sapiens) | < 4.00 |
| CCCC1CC2CC3c4oc5ccc(OC)cc5c4CCN(C2)C13 (stereo not drawn) [Compound 34f] | Human KOR (Homo sapiens) | < 5.00 |
| CCC1CC2CC3c4sc5ccc(OC)cc5c4CCN(C2)C13 (stereo not drawn) [Compound 34r] | Human KOR (Homo sapiens) | < 5.00 |
| CCC1CC2CC3c4sc5ccc(O)cc5c4CCN(C2)C13 (stereo not drawn) [Compound 35n] | Human KOR (Homo sapiens) | > 5.00 |
| CCC1CC2CC3c4oc5ccc(O)cc5c4CCN(C2)C13 (stereo not drawn) [Compound 35a] | Human KOR (Homo sapiens) | > 5.00 |
| CCCCC1CC2CC3c4oc5ccc(OC)cc5c4CCN(C2)C13 (stereo not drawn) [Compound 34i] | Human KOR (Homo sapiens) | < 5.00 |

----------
Target: Human MOR (Homo sapiens)
Construct: expressed in transfected cells; host or cells: HEK-293T
Sequence (P35372 whole entry): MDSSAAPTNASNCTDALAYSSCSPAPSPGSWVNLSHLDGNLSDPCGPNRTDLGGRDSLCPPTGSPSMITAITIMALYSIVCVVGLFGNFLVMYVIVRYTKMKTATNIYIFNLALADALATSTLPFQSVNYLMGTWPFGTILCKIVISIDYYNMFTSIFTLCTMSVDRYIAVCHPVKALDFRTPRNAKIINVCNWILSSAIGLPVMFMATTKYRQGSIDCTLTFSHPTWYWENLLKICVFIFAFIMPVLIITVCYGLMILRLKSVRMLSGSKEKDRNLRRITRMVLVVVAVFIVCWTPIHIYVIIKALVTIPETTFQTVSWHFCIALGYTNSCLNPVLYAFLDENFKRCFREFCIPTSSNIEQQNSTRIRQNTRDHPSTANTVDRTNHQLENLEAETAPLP
Experiment: cell-based

| MOLECULE | agonist activity at MOR (in words) |
| --- | --- |
| CCC1CC2CC3c4oc5ccc(O)cc5c4C[C@@H](CC)N(C2)C13 (stereo partly drawn) [α-endo-52g] | not active as agonist |
| CCC1(CC)CC2CC3c4oc5ccc(O)cc5c4C[C@@H](C)N(C2)C31 (stereo partly drawn) [α-endo-52f] | not active as agonist |

----------
Target: Human MOR (Homo sapiens)
Construct: expressed in transfected cells; host or cells: HEK-293T
Test: cell-based
Details: read-out: EC50, Human MOR

| COMPOUND | EC50 |
| --- | --- |
| CCC1CC2(C)CC3c4oc5ccc(O)cc5c4CCN(C2)C13 (single isomer, unassigned) [Compound 60b] | < 10 µM |

----------
Molecular target: Human DOR (Homo sapiens)
Construct: expressed in transfected cells; host or cells: HEK-293T
Test: cell-based
Settings: EC50, Human DOR
Parameter: EC50. Scope: all listed entries.

| MOLECULE | EC50 |
| --- | --- |
| CC[C@@H]1Cc2c(oc3ccc(O)cc23)C2CC3CCC2N1C3 (stereo partly drawn) [α-endo-60f] | > 100 µM |
| CCC1CC2(C)CC3c4oc5ccc(O)cc5c4CCN(C2)C13 (single isomer, unassigned) [Compound 60c] | > 10 µM |
| Oc1ccc2oc3c(c2c1)CCN1CC2CC(Cc4ccccc4)C1C3C2 (stereo not shown) [Compound 60h] | > 10 µM |
| CCC1CC2(C)CC3c4oc5ccc(O)cc5c4CCN(C2)C13 (single isomer, unassigned) [Compound 60b] | < 10 µM |
| CC[C@H]1Cc2c(oc3ccc(O)cc23)C2CC3CCC2N1C3 (stereo partly drawn) [α-exo-60f] | < 10 µM |
| CCC1CC2CC3c4oc5cccc(OC)c5c4CCN(C2)C13 (stereo not shown) [Compound 51b] | > 100 µM |
| CCC1CC2CC3c4oc5cc(C)c(OC)cc5c4CCN(C2)C13 (stereo not shown) [Compound 51c] | > 10 µM |
| COCC1CC2CC3c4oc5ccc(OC)cc5c4CCN(C2)C13 (stereo not shown) [Compound 59g] | > 100 µM |
| OCC1CC2CC3c4oc5ccc(O)cc5c4CCN(C2)C13 (stereo not shown) [Compound 60g] | > 10 µM |
| CC1C2CCC3C(C2)c2oc4ccc(O)cc4c2CCN13 (stereo not shown) [Compound 60d] | > 100 µM |

----------
Biological target: Human KOR (Homo sapiens, UniProt P41145)
Construct: expressed in transfected cells; host or cells: HEK-293T
Sequence (P41145 whole entry): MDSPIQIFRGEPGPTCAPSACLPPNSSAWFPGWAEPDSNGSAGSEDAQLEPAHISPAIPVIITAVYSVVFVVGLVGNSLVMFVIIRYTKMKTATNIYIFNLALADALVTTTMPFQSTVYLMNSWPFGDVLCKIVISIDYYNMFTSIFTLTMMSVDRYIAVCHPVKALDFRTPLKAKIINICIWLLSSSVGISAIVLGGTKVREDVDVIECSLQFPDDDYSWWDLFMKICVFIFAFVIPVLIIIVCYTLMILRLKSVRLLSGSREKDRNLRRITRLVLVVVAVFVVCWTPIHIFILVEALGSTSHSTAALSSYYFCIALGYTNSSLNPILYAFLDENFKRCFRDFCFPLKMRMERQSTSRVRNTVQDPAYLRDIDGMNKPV
Experiment: cell-based
Conditions: EC50 at indicated opioid receptor, Human KOR
pEC50: −log10 of the molar value.
Measured pEC50, listed per entry for reference.
EXPERIMENTAL_ENDPOINT: pEC50

| COMPOUND | MEASURED_ON | EXPERIMENTAL_ENDPOINT | ASSAY_RESULT |
| --- | --- | --- | --- |
| CCC1CC2CC3c4oc5ccc(F)cc5c4CCN(C2)C13 (stereo not drawn) [Compound 34j] | Human KOR (Homo sapiens, UniProt P41145) | pEC50 | < 5.00 |
| COCC1CC2CC3c4oc5ccc(O)cc5c4CCN(C2)C13 (stereo not drawn) [Compound 35i] | Human KOR (Homo sapiens, UniProt P41145) | pEC50 | > 5.00 |
| CCC1CC2CC3c4oc5cc(F)c(OC)cc5c4CCN(C2)C13 (stereo not drawn) [Compound 34l] | Human KOR (Homo sapiens, UniProt P41145) | pEC50 | < 5.00 |
| CCCCC1CC2CC3c4oc5ccc(O)cc5c4CCN(C2)C13 (stereo not drawn) [Compound 35h] | Human KOR (Homo sapiens, UniProt P41145) | pEC50 | > 5.00 |
| CCC1CC2CC3c4oc5ccc(O)cc5c4C[C@@H](CC)N(C2)C13 (stereo partly drawn) [α-endo-52g] | Human KOR (Homo sapiens, UniProt P41145) | pEC50 | < 4.00 |
| CCC1CC2CC3c4oc5ccc(OC)cc5c4CCN(C2)C13 (single isomer, unassigned) [Compound 34d] | Human KOR (Homo sapiens, UniProt P41145) | pEC50 | < 5.00 |
| CCC1CC2CC3c4sc5ccccc5c4CCN(C2)C13 (stereo not drawn) [Compound 34q] | Human KOR (Homo sapiens, UniProt P41145) | pEC50 | < 5.00 |
| CCC1CC2CC3c4oc5cc(C)c(O)cc5c4CCN(C2)C13 (stereo not drawn) [Compound 52c] | Human KOR (Homo sapiens, UniProt P41145) | pEC50 | < 5.00 |
| CCC1CC2CC3c4oc5cccc(O)c5c4CCN(C2)C13 (stereo not drawn) [Compound 52b] | Human KOR (Homo sapiens, UniProt P41145) | pEC50 | < 4.00 |
